Where do the numbers come from? From PubChem BioAssay (NCI).

- System: NCI-H522 lung
- PROTOCOL_TEXT: NCI tumour cell line growth inhibition, 48 h
Listed next: entries and their corresponding TGI.
State the answer as a number, implicitly in µM.

Here are 2 compounds together with their reported answers.
INSERT INTO assay_data (molecular_string, data_value) VALUES
  ('CCOC(=O)c1c(C)n(Cc2ccc(OC)cc2)c2c1cc(O)c1[nH]c3c(c12)CCCC3', 3.97),
  ('O=C(CNc1ccc(Cl)cc1)Nn1c(-c2ccccc2)nc2ccccc2c1=O', 11.5);

We now examine a further compound.
Fill in TGI for record COc1cc(Cn2c(-c3ccccc3)cc3c2-c2oncc2CC3)cc(OC)c1OC 5.99

###

- Tested on: NCI-H460 lung
- PROTOCOL_TEXT: NCI tumour cell line growth inhibition, 48 h
READOUT_NAME: TGI

Here are 3 compounds together with their reported answers.
INSERT INTO measurements (compound, system_tested, data_value) VALUES
  ('O=C1c2ccccc2S[C@@H](O)[C@@H]2CCCN12', 'NCI-H460 lung', '> 100 µM'),
  ('CCOC(=O)CC(NC(=O)c1nc[nH]c1[N+](=O)[O-])C(=O)OCC (centres undefined)', 'NCI-H460 lung', '> 100 µM'),
  ('Cc1ccc(NC(=O)C2C(=O)N(c3ccc(C)c(C)c3)C(=O)/C2=N/O)cc1C (centres undefined)', 'NCI-H460 lung', '> 100 µM');

We now examine a further compound.
Fill in TGI for record Cn1cc(C2=C(c3cn(CCCN=C(N)N)c4ccccc34)C(=O)NC2=O)c2ccccc21 > 25 µM

###

- Tested on: NCI-H460 lung
- PROTOCOL_TEXT: NCI tumour cell line growth inhibition, 48 h
READOUT_NAME: TGI

Here are 2 compounds together with their reported answers.
INSERT INTO results (compound, system_tested, data_value) VALUES
  ('CC1CN=C(Nc2ccc(S(N)(=O)=O)cc2)S1 (stereo unspecified)', 'NCI-H460 lung', '> 100 µM'),
  ('COc1ccc2cc(C(=O)/C=C/c3cccc(OC)c3OC)ccc2c1', 'NCI-H460 lung', '37.5 µM');

We now examine a further compound.
Fill in TGI for record Cc1c(Cc2ccccc2)n(COCCCO)c(=O)[nH]c1=O > 100 µM

###

- Tested on: A498 renal
- PROTOCOL_TEXT: NCI tumour cell line growth inhibition, 48 h
READOUT_NAME: TGI

Here are 5 compounds together with their reported answers.
INSERT INTO results (compound, data_value) VALUES
  ('Cc1cc(C)cc(Nc2nnc3n2S(=O)(=O)c2cc(C#N)c(Cl)cc2S3)c1', '31.4 µM'),
  ('Clc1ccc2c(NCCCCN=Cc3ccccc3)ccnc2c1', '7.26 µM'),
  ('Cc1oc2nc(N(C)C)nc(Cl)c2c1C', '> 100 µM'),
  ('COc1ccc(-c2nc(-c3nc4ccc(C)cc4[nH]3)c3ccccn23)cc1', '9.65 µM'),
  ('COc1cc(-c2c(C#N)c(N)n3c(nc4ccccc43)c2C#N)cc(Br)c1OC', '> 100 µM');

Fill in TGI for record Nc1nc(Cl)cc(NCC2(CO)CC(OCc3ccccc3)C2)n1 (stereo not drawn) 86.5 µM

Fill in TGI for record COc1ccc(OC)c(/C=C/NC=O)c1 > 100 µM

Fill in TGI for record COc1cc([N+](=O)[O-])ccc1NC(=O)C(F)(F)F > 100 µM

Fill in TGI for record C=C1C(=O)O[C@H]2[C@H]1CC/C(COC(=O)/C=C\C(=O)NCc1ccc(Cn3c(=O)sn(-c4ccc(C#N)cc4)c3=O)cc1)=C\CC[C@@]1(C)O[C@@H]21 1.55 µM

Fill in TGI for record CN1CCC(OC(=O)Oc2ccccc2)(c2ccccc2)CC1 56.4 µM

Fill in TGI for record O=c1[nH]nc(-c2cccc(Br)c2)[nH]1 > 100 µM

Fill in TGI for record Nc1nccc(-c2c(-c3ccc(F)cc3)ncn2CCCN2CCOCC2)n1 > 25 µM

Fill in TGI for record CC(C)(C)OC(=O)N(CCCN(CCn1c2c(c3ccccc3c1=O)C(=O)c1ccccc1-2)C(=O)OC(C)(C)C)CCn1c2c(c3ccccc3c1=O)C(=O)c1ccccc1-2 > 50 µM

Fill in TGI for record O=C(c1ccccc1)c1c2ccccn2c2cccc[n+]12 > 100 µM
